Below, each entry is listed with its recorded amyloid nucleation score.
- assayMethodText: amyloid nucleation score (Sup35N fusion, yeast selection) (log enrichment); library NNK1; higher = more nucleation; inactive = no reads after selection;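 further: zero at mode of non-aggregating sequences after 7 days selection at 30°C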

VVDVQALSWSRGADLSSW    1.02
HSMVFNLEWFKARQDGDLN    1.5
THFVLE    0.53
IGTSFVYNYFDHFLK    5.59
NCGGRVSG    8.08

Q. What does the record list as amyloid nucleation score for KISCIISWLYDFIIKLAFFT ?
A. -0.931

Q. What would you report for VYLKKSLFL ?
A. -0.484

Q. What do you have for MRSFAFWNYVFGRGMFPVFW ?
A. -0.272

Q. Please do the same for GVKFNSDMSCQFRRVLVEIA as well.
A. -0.057

Q. Next substance up: AFYSEMGFSDVYILLVYSMM
A. 4.45

Q. Same lookup for GQAWCTLTCRGTGPSQLGWV , please.
A. -0.508

Q. Please do the same for VADAPMR as well.
A. 0.944

Q. Another substance: TTVLRGLKTP
A. -0.825

Q. Then HVMRSSGRHGRRRLT ?
A. -0.631

Q. Entry RYRRFCFALVYMRKNI please
A. -0.184

Q. Same again, this time with QFRCFHLL
A. -0.026

Q. Let us now turn to QQGPFVCWIQR
A. -0.583

====

- assayMethodText: amyloid nucleation score (Sup35N fusion, yeast selection) (log enrichment); library NNK2; higher = more nucleation; inactive = no reads after selection
Tick MET if amyloid nucleation score is 0.7 or greater. Tick NOT MET if amyloid nucleation score is less than 0.7.

SHNGHVLVPNRVVSITSCHR    NOT MET
RVGDEFVGCRWVSRIANSHS    MET
HPFVSDCVMDLKFTVVTGLV    NOT MET
IKYLKCIVMCRFFVHWSSIV    NOT MET
WATFRPD    NOT MET
SKGIDSEIHKRHRVRD    NOT MET
VRCGGVSFGSMWVLDSILVR    NOT MET
LYDFCVSYVSQNGLRLFVRT    NOT MET

Q. Is reported amyloid nucleation score greater than or equal to 0.7 here: YFNSLTQISSFRKFSRPLHS
A. NOT MET

Q. # iterate: FWLNMYSVETVYGVVFAWEK
A. NOT MET

Q. TRETHLGNAFA ?
A. NOT MET

Q. Okay, and GAGWFNDFVHLPWHLEVSNY ?
A. NOT MET

Q. Could you do the same for EGICFLLMDCSCNNCFLALA , please?
A. MET

Q. Repeat for the following substance: IGINLCCGDYFIHVLSASCS
A. MET

Q. Entry to check: RGMTRVVFTVMLLRLWYSQS
A. NOT MET

Q. Next: RFQLVSAMAFTYMVAR
A. NOT MET

====

- assayMethodText: amyloid nucleation score (Sup35N fusion, yeast selection) (log enrichment); library NNK3; higher = more nucleation; inactive = no reads after selection
reportedMetric: amyloid nucleation score

Here is how some substances turned out for amyloid nucleation score.
ITMCIIHHRHLMATSFM    0.752
RRLVMDTTRLACKRYWRFLN    inactive
TYKVFL    inactive
SFTAYVASLA    -0.151
VIILMVIVLYNRVSFETFSV    inactive
LNRVRSS    -0.108

Q. Fill in the blank: the reported amyloid nucleation score of LFEPVIEILI is ____.
A. inactive

Q. Okay, and LVDLSRSISKSPMQKYRF ?
A. inactive

Q. Another: YLCFLSKMVSYSISYQWSRQ
A. inactive

Measured values drawn from the supplement of paper PMC12042874 for this set.
